Values were extracted from patent US11186613B2.

Test system: IgG
Test: Affinity analysis of IgG-binding peptides by surface plasmon resonance (BIAcore T200), IgG immobilized on sensor chip
Details: SPR, peptide 10 nM to 2 μM, HBS-EP buffer pH 7.0
Bridges are numbered along the chain shown (N, C = ends). Primed or numbered codes have the meaning given here. Where no end group is shown, it is not given here. The star is where a group is joined. Biotin = O=C1N[C@H]2[C@H](CS[C@H]2CCCCC(=O)*)N1; PEG4′ = not defined here
Assign ka to each entry below.

{"SUBSTANCE": "DCAYH(Xaa1)GELVWCT (SEQ ID NO:1, wherein Xaa1 was arginine and the C-terminus was amidated) ({Biotin-PEG4′}-DCAYHRGELVWCT-NH2; disulfide 2-12 (inferred)) [SEQ ID NO: 1, wherein Xaa1 is R]", "ka": "4.57E+05"}
{"SUBSTANCE": "GPDCAYH(Xaa1)GELVWCTFH (SEQ ID NO:2, wherein Xaa1 was acetylated lysine, and the C-terminus was amidated) (GPDCAYHXGELVWCTFH; Xaa1=acetyl-lysine; C-terminal amide; (8)..(8) Xaa is arginine, lysine, leucine, asparagine, or derivative thereof) [SEQ ID NO: 2, wherein Xaa1 is K (Acetyl)]", "ka": "4.4E+05"}

Record GPRCAYH(Xaa1)GELVWCSFH (SEQ ID NO:4, wherein Xaa1 was arginine and the C-terminus was amidated) (GPRCAYHRGELVWCSFH-NH2; not fully specified (N-terminus, bridges); cysteine pairing not given here) [SEQ ID NO: 4, wherein Xaa1 is R] . Reported ka: 8.40E+05

* * *

So I've got a bunch of substances here, and I need their Kd values.
Molecular target: IgG
Test: Affinity analysis of IgG-binding peptides by surface plasmon resonance (BIAcore T200), IgG immobilized on sensor chip
Conditions: SPR, 1:1 binding model; read-out: KD (nM) 1:1 binding
Bridges are numbered along the chain shown (N, C = ends). Primed or numbered codes have the meaning given here. Where no end group is shown, it is not given here. The star is where a group is joined. Biotin = O=C1N[C@H]2[C@H](CS[C@H]2CCCCC(=O)*)N1; PEG4′ = not defined here
Answers are plain numbers, in nM.

Study these solved cases before continuing.
{"SUBSTANCE": "GPDCAYH(Xaa1)GELVWCTFH (SEQ ID NO:2, wherein Xaa1 was arginine and the C-terminus was amidated) (GPDCAYHRGELVWCTFH-NH2; not fully specified (N-terminus, bridges); printed as GPDCAYH(Xaa1)GELVWCTFH; cysteine pairing not given here) [SEQ ID NO: 2, wherein Xaa1 is R]", "Kd, nM": 9.1}
{"SUBSTANCE": "GPDCAYH(Xaa1)GELVWCTFH (SEQ ID NO:2, wherein Xaa1 was lysine, and the C-terminus was amidated) (GPDCAYHXGELVWCTFH; Xaa1=K; C-terminal amide; (8)..(8) Xaa is arginine, lysine, leucine, asparagine, or derivative thereof) [SEQ ID NO: 2, wherein Xaa1 is K]", "Kd, nM": 156}
{"SUBSTANCE": "GPDCAYH(Xaa1)GELVWCTFH (SEQ ID NO:2, wherein Xaa1 was acetylated lysine, and the C-terminus was amidated) (GPDCAYHXGELVWCTFH; Xaa1=acetyl-lysine; C-terminal amide; (8)..(8) Xaa is arginine, lysine, leucine, asparagine, or derivative thereof) [SEQ ID NO: 2, wherein Xaa1 is K (Acetyl)]", "Kd, nM": 2700}
{"SUBSTANCE": "GPRCAYH(Xaa1)GELVWCSFH (SEQ ID NO:4, wherein Xaa1 was arginine and the C-terminus was amidated) (GPRCAYHRGELVWCSFH-NH2; not fully specified (N-terminus, bridges); cysteine pairing not given here) [SEQ ID NO: 4, wherein Xaa1 is R]", "Kd, nM": 42}
{"SUBSTANCE": "GPDCAYH(Xaa1)GELVWCTFH (SEQ ID NO:2, wherein Xaa1 was leucine, and the C-terminus was amidated) ({Biotin-PEG4′}-GPDCAYHLGELVWCTFH-NH2; disulfide 4-14 (inferred)) [SEQ ID NO: 2, wherein Xaa1 is L]", "Kd, nM": 8.1}

Now, please, on to the next substance.
IgG Kd of DCAYH(Xaa1)GELVWCT (SEQ ID NO:1, wherein Xaa1 was arginine and the C-terminus was amidated) ({Biotin-PEG4′}-DCAYHRGELVWCT-NH2; disulfide 2-12 (inferred)) [SEQ ID NO: 1, wherein Xaa1 is R] is 54
